Assay: E. coli growth modulation, two-sided OD650, primary screen, E. coli filamentation project, strain DRC41, 24 h (AID 1093);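 further: MC1000 strain lacking acrAB efflux and sulA so SOS filamentation is blocked; test concentration not given here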
Conditions: OD650, 24 h, higher = more signal, called active from +8 up or from −8 down
Catalogue of z-score readings, one per entry.
Give the value as a plain number.

Req: Which z-score is reported for this molecule? `COCCOC(=O)N1C(=O)[C@@]2(c3cc(C#CCNC(N)=O)ccc31)[C@H](c1ccc(O)cc1)N1[C@H](c3ccccc3)[C@H](c3ccccc3)OC(=O)[C@H]1[C@@H]2C(=O)N1CCN(c2ncccn2)CC1`
Resp: -0.561

Req: Follow-up entry: `O=C(CS)NCCCCCCNC(=O)[C@@H]1C[C@@H]2C(=O)NCC(=O)N2[C@@H]1c1ccc(O)cc1`
Resp: 0.869

Req: Same for `COCCOC(=O)N1C(=O)[C@@]2(c3cc(C#CCNC(N)=O)ccc31)[C@H](c1ccc(OCCO)cc1)N1[C@H](c3ccccc3)[C@H](c3ccccc3)OC(=O)[C@H]1[C@@H]2C(=O)NC[C@H](O)c1ccccc1`
Resp: 0.925

Req: Then this molecule: C=CCC(OC(C)=O)[C@@H]1[C@@H](N(Cc2ccc(-c3cccc(C(F)(F)F)c3)o2)C(=O)Cc2ccc(OC)cc2)c2cc(OCCCO)ccc2N1C(=O)Cc1ccc2ccccc2c1 (stereo partly drawn)
Resp: -0.406

Req: Input `CCCCC=C[C@@H](NC(=O)c1ccccc1)c1ccccc1`
Resp: -1.37

Req: Again, but for `C=CCNC(=O)[C@H]1[C@@H]2C(=O)O[C@@H](c3ccccc3)[C@@H](c3ccccc3)N2[C@@H](c2ccc(OCCO)cc2)[C@]12C(=O)N(C(=O)OCCOC)c1ccc(C#Cc3ccc(OC)cc3)cc12`
Resp: 2.63

Req: What about CC(C)c1ccc(NN2C(C(O)Cc3ccccc3)C=CC3C(=O)N(c4ccccc4)C(=O)C32)cc1 (stereo not drawn) ?
Resp: -1.36

Req: Also, CC(C)[C@H]1NC(=O)[C@@]23C(=O)N[C@@H](Cc4ccccc4)C2[C@H](C)[C@@]2(C)O[C@H]2C3/C=C/CCC/C=C/CNC(=O)[C@H](Cc2ccccc2)NC1=O (stereo partly drawn) please.
Resp: 0.139

Req: Then `CC(C)C(=C=CC[C@@H](O)c1cccc(OCCO)c1)C[C@@H](O)c1ccccn1` ?
Resp: 0.379

Req: Same question for `O=C1O[C@H](c2ccccc2)[C@H](c2ccccc2)N2[C@H]1[C@@H](C(=O)O)[C@]1(C(=O)Nc3ccc(C#CC4(O)CCCCCC4)cc31)[C@H]2c1ccc(O)cc1` please.
Resp: 2.04

Req: Param item: NC(=O)N1C(=O)C2C(C1=O)C1C=C(CCCO)C2C(C2CC2)N1Cc1cccc(OC(F)(F)F)c1 (stereo not drawn)
Resp: -0.284

Req: Continue with `COc1ccc([Si](C)(C)[C@H]2[C@H](CCO)O[C@@]3(C(=O)N(Cc4ccc(N5C(=O)c6ccccc6Oc6ccccc65)cc4)c4ccccc43)[C@@H]2C)cc1`
Resp: 0.511

Req: Queued: `COC(=O)[C@@]1(Cc2ccc(OC)cc2)[C@H]2c3cc(C(=O)N4CCCC4)n(Cc4ccc(OC(F)(F)F)cc4)c3C[C@H]2CN1C(=O)c1ccccc1`
Resp: -0.376
